Attribution: patent US12240846B2

Quick reference: IC50 of the listed items.
- Test system: HL60 cells
- assay_remarks: HL60 cell proliferation assay (CellTiter-Glo)
- Assay type: cell-based
- stated_conditions: Homo sapiens, HL-60, HL60 cell viability, 72 hours, read-out: Cell Line (IC50, nM) HL60
- Method: K562 and HL60 Cell Proliferation Assay K562 and HL60 cells, cultured in Iscove's Modified Dulbecco's Media (IMDM) supplemented with 10% FBS, were harvested at 50-80% confluency and plated at 2,000 cells per well (K562) or 1,500 cells per well (HL60) in 384-well tissue culture plates. […] Luminescence was measured using an EnSpire plate reader (Perkin Elmer). As noted above, luminescence values from wells with DMSO only or media without cells were used as high and low controls (HC and LC), respectively. […]
Structures can show the parent of a compound that is named as a salt.
Write the number in nM without appending the unit.

Recorded IC50, per entry:
[[record]]
compound = "COc1nccc(C)c1-c1cc2cc(NC(=O)[C@@H]3C[C@@H]3F)ncc2n1C"
experimental_endpoint = "IC50"
assay_result = 1460

[[record]]
compound = "COc1ncccc1-c1cc2cc(NC(=O)[C@H]3C[C@H]3F)ncc2n1C"
experimental_endpoint = "IC50"
assay_result = 3840

[[record]]
compound = "COc1cc2[nH]cnc2cc1-c1cc2cc(NC(=O)[C@@H]3C[C@@H]3F)ncc2n1C [Compound 28, formate]"
experimental_endpoint = "IC50"
assay_result = 233


// IC50 (HL60 cells) for COc1ncc(Cl)cc1-c1cc2cc(NC(=O)[C@@H]3C[C@@H]3F)ncc2n1C = 1750

----------
- experimental_system: ABL1 (T315I) (Homo sapiens, UniProt P00519, T315I)
- assay_remarks: Luminescence-based ABL kinase assay (300 μM ATP), ADP-Glo
- Format: biochemical
experimental_endpoint: IC50 (nM)
Write the number in nM without appending the unit.

Recorded IC50, per entry:
[[record]]
compound = "COc1ncnc(OC)c1-c1[nH]c2cc(NC(=O)[C@@H]3C[C@@H]3F)ncc2c1C [Compound 91]"
experimental_system = "ABL1 (T315I) (Homo sapiens, UniProt P00519, T315I)"
experimental_endpoint = "IC50"
units_label = "nM"
assay_result = 399

[[record]]
compound = "COc1ccccc1-c1cc2cc(NC(=O)[C@@H]3C[C@H]3CN(C)C)ncc2n1C (single isomer, unassigned) [Compound 132]"
experimental_system = "ABL1 (T315I) (Homo sapiens, UniProt P00519, T315I)"
experimental_endpoint = "IC50"
units_label = "nM"
assay_result = 75.1

[[record]]
compound = "Cc1c(O)cccc1-c1cc2cc(NC(=O)C3CC3)ncc2n1C [Compound 7]"
experimental_system = "ABL1 (T315I) (Homo sapiens, UniProt P00519, T315I)"
experimental_endpoint = "IC50"
units_label = "nM"
assay_result = 6.59


Field: next compound
// recorded IC50 for COc1ncnc(NC2CC2)c1-c1cc2cc(NC(=O)[C@@H]3C[C@@H]3F)ncc2n1C [Compound 110] : 357

----------
- Test system: K562 cells
- assay_remarks: K562 cell proliferation assay (CellTiter-Glo)
- Type: cell-based
- stated_conditions: Homo sapiens, K562 cell viability, 72 hours, read-out: Cell Line (IC50, nM) K562
- Method: K562 and HL60 Cell Proliferation Assay K562 and HL60 cells, cultured in Iscove's Modified Dulbecco's Media (IMDM) supplemented with 10% FBS, were harvested at 50-80% confluency and plated at 2,000 cells per well (K562) or 1,500 cells per well (HL60) in 384-well tissue culture plates. […] Luminescence was measured using an EnSpire plate reader (Perkin Elmer). As noted above, luminescence values from wells with DMSO only or media without cells were used as high and low controls (HC and LC), respectively. […]
experimental_endpoint: log10(IC50) (log10 of the value in nM)
Remember, log10 of IC50, in nM.

Recorded log10(IC50), per entry:
[[record]]
compound = "COc1ccccc1-c1cc2cc(NC(=O)[C@H]3C[C@H]3CO)ncc2n1C (relative stereo) [Compound 23]"
assay_result = 2.80

[[record]]
compound = "COc1cc2scnc2cc1-c1cc2cc(NC(=O)[C@@H]3C[C@@H]3F)ncc2n1C [Compound 70]"
assay_result = 2.29

[[record]]
compound = "COc1ncnc(OC)c1-c1cc2cc(NC(=O)[C@H]3CC3(F)F)ncc2n1C [Compound 137]"
assay_result = 1.57

[[record]]
compound = "COc1cnnc(OC)c1-c1cc2cc(NC(=O)[C@@H]3C[C@@H]3F)ncc2n1C [Compound 107]"
assay_result = 1.61

[[record]]
compound = "COc1ccnc(OC)c1-c1cc2cc(NC(=O)[C@@H]3C[C@H]3CN(C)C)ncc2n1C (single isomer, unassigned) [Compound 122]"
assay_result = 2.07

[[record]]
compound = "COc1ncc(C#N)cc1-c1cc2cc(NC(=O)[C@@H]3C[C@@H]3F)ncc2n1C [Compound 67]"
assay_result = 2.32

[[record]]
compound = "COc1c(-c2cc3cc(NC(=O)[C@@H]4C[C@@H]4F)ncc3n2C)ccc2[nH]cnc12 [Compound 29]"
assay_result = 2.41

[[record]]
compound = "CCN1CCN(CCNC(=O)Nc2cc3cc(-c4c(OC)ccnc4OC)n(C)c3cn2)CC1 [Compound 83, formic acid]"
assay_result = 2.20

[[record]]
compound = "COc1cccc(OC)c1-c1cc2cc(NC(=O)NCCN3CCNCC3)ncc2n1C [Compound 81]"
assay_result = 1.61

[[record]]
compound = "COc1cccc(OC)c1-c1cc2cc(NC(=O)[C@H]3C[C@@H]3CN(C)C)ncc2n1C [Compound 135]"
assay_result = 1.45


// recorded log10(IC50) for [2H]C([2H])([2H])Oc1ncnc(OC([2H])([2H])[2H])c1-c1cc2cc(NC(=O)[C@@H]3C[C@@H]3F)ncc2[nH]1 [Compound 144] : 3.03

// recorded log10(IC50) for CCc1ccnc(OC)c1-c1cc2cc(NC(=O)[C@@H]3C[C@@H]3F)ncc2n1C [Compound 142] : 1.77
